- TEST_PROTOCOL: Relative oral bioavailability (FRel experiment) in Wistar rats
- Assay type: in vivo
- CONDITION_DESCRIPTION: rat, plasma, tylose suspension (formulation A2), 10 mg/kg API, relative to PEG400/water solution (formulation A1)

COMPOUND	bioavailability (%)
C[C@H]1C[C@@H](n2c(Nc3ccc(OC(F)(F)F)cc3)nc3cc(CCC(=O)O)ccc32)CC(C)(C)C1 [Compound A]	25

This collection of values is drawn from patent US10344004B2.
